- target.system: UniProtKB O15244
- procedure.text: Inhibition of ASP+ uptake by competitors, hOCT2 WT
- assay.conditions: 1 µM ASP^+; HEK293 hOCT2 WT cells; 37 °C, pH 7.4; read-out: hOCT2 WT IC50 (apparent affinity, inhibition of ASP^+ uptake)
Item-by-item account of IC50
measured.metric: IC50

> print(dat)
                                   compound  assay.value
1   N.N.[Cl][Pt][Cl] [Cisplatin, cisplatin]     0.016 mM
2   CN1CC(=O)NC1=N [Creatinine, creatinine]      18.6 mM
3      NCCc1c[nH]cn1 [Histamine, histamine]       4.6 mM
4  Cc1ncc(C[n+]2csc(CCO)c2C)c(N)n1 [Thiamin, thiamine]     0.087 mM
5  CN/C(=N/CCSCc1nc[nH]c1C)NC#N [Cimetidine, cimetidine]     0.023 mM
6  N[C@@H](Cc1c[nH]c2ccccc12)C(=O)O [Tryptophan, tryptophan]      ~5.4 mM

----------
- target.system: hOCT2 Ala270Ser (Homo sapiens)
- Construct: expressed in transfected cells
- Sequence (O15244 1-555): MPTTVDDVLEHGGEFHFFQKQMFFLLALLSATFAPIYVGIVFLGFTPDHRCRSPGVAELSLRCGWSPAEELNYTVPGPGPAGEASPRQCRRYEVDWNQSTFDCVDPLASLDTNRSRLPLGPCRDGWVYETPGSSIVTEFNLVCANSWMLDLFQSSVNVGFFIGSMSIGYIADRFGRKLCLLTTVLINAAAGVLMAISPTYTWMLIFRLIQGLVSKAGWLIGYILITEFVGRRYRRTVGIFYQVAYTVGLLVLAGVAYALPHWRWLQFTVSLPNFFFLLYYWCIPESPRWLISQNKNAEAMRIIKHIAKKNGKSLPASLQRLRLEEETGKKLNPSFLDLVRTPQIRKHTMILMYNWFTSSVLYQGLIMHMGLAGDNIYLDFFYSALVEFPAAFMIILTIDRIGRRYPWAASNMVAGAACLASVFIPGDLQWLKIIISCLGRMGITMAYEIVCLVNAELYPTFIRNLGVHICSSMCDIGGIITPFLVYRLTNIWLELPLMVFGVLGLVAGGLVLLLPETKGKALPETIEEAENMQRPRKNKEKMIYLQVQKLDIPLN
- procedure.text: Inhibition of ASP+ uptake by competitors, hOCT2 Ala270Ser
- Type: cell-based
- assay.conditions: log of IC50, in parenthesis in Table 1; 1 µM ASP^+; hOCT2 Ala270Ser cells
Item-by-item account of hOCT2 Ala270Ser logIC50 ± SEM
measured.metric: hOCT2 Ala270Ser logIC50 ± SEM

> print(dat)
                                  molecule                measured.metric   assay.value
1          Cc1ncc(C[n+]2csc(CCO)c2C)c(N)n1  hOCT2 Ala270Ser logIC50 ± SEM  −3.98 ± 0.06
2  N.N.[Cl][Pt][Cl] [Cisplatin, cisplatin]  hOCT2 Ala270Ser logIC50 ± SEM  −5.04 ± 0.11
3                           CN1CC(=O)NC1=N  hOCT2 Ala270Ser logIC50 ± SEM  −2.01 ± 0.06
4             CN/C(=N/CCSCc1nc[nH]c1C)NC#N  hOCT2 Ala270Ser logIC50 ± SEM  −4.40 ± 0.19
5                            NCCc1c[nH]cn1  hOCT2 Ala270Ser logIC50 ± SEM  −2.40 ± 0.07
6         N[C@@H](Cc1c[nH]c2ccccc12)C(=O)O  hOCT2 Ala270Ser logIC50 ± SEM  −2.61 ± 0.28
7                        CN(C)C(=N)N=C(N)N  hOCT2 Ala270Ser logIC50 ± SEM  −3.07 ± 0.05

----------
- target.system: hOCT2 WT (Homo sapiens, UniProt O15244, S270A)
- Construct: expressed in transfected cells
- procedure.text: Inhibition of ASP+ uptake by competitors, hOCT2 WT
- Assay type: cell-based
- assay.conditions: log of IC50, in parenthesis in Table 1; 1 µM ASP^+; hOCT2 WT cells
measured.metric: hOCT2 WT logIC50 ± SEM

> print(dat)
                                   compound   assay.value
1      NCCc1c[nH]cn1 [Histamine, histamine]  −2.33 ± 0.06
2  CN/C(=N/CCSCc1nc[nH]c1C)NC#N [Cimetidine, cimetidine]  −4.64 ± 0.12
3   CN1CC(=O)NC1=N [Creatinine, creatinine]  −1.73 ± 0.04
4  CN(C)C(=N)N=C(N)N [Metformin, metformin]  −3.06 ± 0.05
5   N.N.[Cl][Pt][Cl] [Cisplatin, cisplatin]  −4.80 ± 0.10
6  Cc1ncc(C[n+]2csc(CCO)c2C)c(N)n1 [Thiamin, thiamine]  −4.06 ± 0.05
7  CN(C)CCCN1c2ccccc2CCc2ccccc21 [Imipramine, imipramine]  −2.71 ± 0.06
8  N[C@@H](Cc1c[nH]c2ccccc12)C(=O)O [Tryptophan, tryptophan]  −2.27 ± 0.28

----------
- target.system: hOCT2 Ala270Ser (Homo sapiens, UniProt O15244)
- procedure.text: Inhibition of ASP+ uptake by competitors, hOCT2 Ala270Ser
- assay.conditions: 1 µM ASP^+; HEK293 hOCT2 Ala270Ser cells; 37 °C, pH 7.4; read-out: hOCT2 Ala270Ser IC50 (apparent affinity, inhibition of ASP^+ uptake)
pIC50: −log10 of the molar value.
measured.metric: pIC50

> print(dat)
                               mol  assay.value
1  Cc1ncc(C[n+]2csc(CCO)c2C)c(N)n1         3.97
2                    NCCc1c[nH]cn1         2.40
3     CN/C(=N/CCSCc1nc[nH]c1C)NC#N         4.40
